- targetEntity: JARID1B (Homo sapiens, UniProt Q9UGL1)
- Construct: The FLAG tagged full length JARID1B enzyme was expressed in Sf21 insect cells using FLAG-JARID1B baculoviruses; FLAG (N); made in house; host or cells: Sf21 insect cells (baculovirus)
- Sequence (Q9UGL1 whole entry): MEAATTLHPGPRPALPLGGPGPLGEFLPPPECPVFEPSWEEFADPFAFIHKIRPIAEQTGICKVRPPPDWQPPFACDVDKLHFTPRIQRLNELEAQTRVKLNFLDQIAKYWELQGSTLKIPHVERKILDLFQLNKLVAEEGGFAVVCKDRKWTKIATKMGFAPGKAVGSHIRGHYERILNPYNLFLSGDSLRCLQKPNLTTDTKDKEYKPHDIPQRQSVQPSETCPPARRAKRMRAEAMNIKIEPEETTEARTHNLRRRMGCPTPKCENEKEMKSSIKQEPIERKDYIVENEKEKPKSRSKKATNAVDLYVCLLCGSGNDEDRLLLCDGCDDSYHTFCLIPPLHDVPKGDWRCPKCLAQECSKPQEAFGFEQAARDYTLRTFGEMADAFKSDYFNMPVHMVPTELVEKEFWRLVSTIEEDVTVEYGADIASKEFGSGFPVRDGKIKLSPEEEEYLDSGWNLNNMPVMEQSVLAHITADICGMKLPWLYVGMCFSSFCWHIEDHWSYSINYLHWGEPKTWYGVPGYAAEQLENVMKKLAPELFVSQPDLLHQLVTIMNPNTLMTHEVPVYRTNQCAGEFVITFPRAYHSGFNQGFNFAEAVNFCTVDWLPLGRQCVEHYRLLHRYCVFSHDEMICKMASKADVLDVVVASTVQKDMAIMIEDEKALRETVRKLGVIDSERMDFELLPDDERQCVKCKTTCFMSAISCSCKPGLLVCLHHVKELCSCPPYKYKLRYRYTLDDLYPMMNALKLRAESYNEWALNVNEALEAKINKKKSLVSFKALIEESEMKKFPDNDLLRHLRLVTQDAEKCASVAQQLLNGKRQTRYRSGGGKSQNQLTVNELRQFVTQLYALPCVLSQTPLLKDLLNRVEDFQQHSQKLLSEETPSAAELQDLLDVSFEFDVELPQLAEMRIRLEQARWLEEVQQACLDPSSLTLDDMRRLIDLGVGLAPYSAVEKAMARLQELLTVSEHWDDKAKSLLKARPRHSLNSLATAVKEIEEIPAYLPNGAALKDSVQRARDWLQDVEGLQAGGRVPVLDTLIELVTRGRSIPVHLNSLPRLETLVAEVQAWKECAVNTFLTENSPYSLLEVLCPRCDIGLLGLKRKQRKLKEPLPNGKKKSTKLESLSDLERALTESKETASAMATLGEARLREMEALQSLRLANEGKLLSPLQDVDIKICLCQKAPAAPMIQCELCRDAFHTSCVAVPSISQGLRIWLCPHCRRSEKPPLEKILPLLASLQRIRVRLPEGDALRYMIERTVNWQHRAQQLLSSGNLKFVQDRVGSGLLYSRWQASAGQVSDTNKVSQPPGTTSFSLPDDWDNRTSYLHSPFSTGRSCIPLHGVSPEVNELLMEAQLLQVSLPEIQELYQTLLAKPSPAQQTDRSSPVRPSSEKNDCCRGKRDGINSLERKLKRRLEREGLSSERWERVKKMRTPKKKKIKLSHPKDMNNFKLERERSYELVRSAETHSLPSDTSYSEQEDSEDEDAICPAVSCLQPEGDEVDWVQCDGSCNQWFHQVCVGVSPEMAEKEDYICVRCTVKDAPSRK
- protocolDescription: FLAG-JARID1B histone demethylase assay with AlphaScreen detection (HTS and dose response);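 note: FLAG-tagged JARID1B at 4 nM acting on a biotinylated H3K4me3 peptide, demethylation read by AlphaScreen luminescence, with hits checked against bio-H3K4me2 without enzyme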;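 note: compound tested at 20 µM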
- Type: biochemical
- conditionParameters: assay signal minus artifact signal
measurementLabel: Assay − Artifact Signal (percent) (%)
Write it as a number; the unit % goes unstated.

Please review the entries below; each comes with its answer.
compound	measurementLabel	valueMeasured
c1ccc2c(NCc3ccncc3)cccc2c1 [YU145649]	Assay − Artifact Signal (percent)	87.87
O=c1c(O[C@@H]2O[C@H](CO)[C@@H](O)[C@H](O)[C@H]2O)c(-c2ccc(O)c(O)c2)oc2cc(O)cc(O)c12 [YU221011, Isoquercitrin, reference compound]	Assay − Artifact Signal (percent)	36.99
Cc1ccc(S(=O)(=O)C=CC#N)cc1 (single isomer, unassigned) [YU154885, BAY 11-7082, reference compound]	Assay − Artifact Signal (percent)	41.45
Cc1cc(N)c2ccccc2[n+]1CCCCCCCCCC[n+]1c(C)cc(N)c2ccccc21 [YU034372, DEQUALINIUM CHLORIDE, reference compound]	Assay − Artifact Signal (percent)	32.23

Assay − Artifact Signal (percent) lookup needed for Clc1ccc2nc(-c3ccccn3)c(Nc3ccc4c(c3)OCCO4)n2c1 [YU173004] , thanks. 48.80
